System: 328373-195-R-J1-PDC complex spheroids, viability % test/control;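 note: spheroids exposed to the agents for 7 days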
Experiment: Anticancer human tumor 328373-195-R-J1-PDC patient-derived head and neck squamous carcinoma cell line growth inhibition [CLK]
Details: curve of first compound; second compound 10 µM
Consider the following molecules and their measured IC50 readings.

Known results for molecules:
COC1C=CCC(C)C(C)S(=O)(=O)NC(=O)c2ccc3c(c2)N(CC2CCC21)CC1(CCCc2cc(Cl)ccc21)CO3 (stereo not drawn) + CN1CCN(c2cc(C(=O)Nc3cc4cc(-c5cnn(C)c5)ccc4cn3)ccn2)CC1
< 31.6 nM
COc1ccc([C@@H](O)c2cc(-c3ncnc4cc(N5CCOCC5)ccc34)c(F)cc2Cl)nn1 + CNC(=O)c1ccc(Nc2nc(OC3CCCC3)c3c(-c4ccc5nc(C)oc5c4)c[nH]c3n2)c(OC)c1
< 31.6 nM

Query string: Entry Nc1ccccc1NC(=O)c1ccc(CNC(=O)OCc2cccnc2)cc1 + CN1CCN(c2cc(C(=O)Nc3cc4cc(-c5cnn(C)c5)ccc4cn3)ccn2)CC1 , system 328373-195-R-J1-PDC complex spheroids, viability % test/control: what IC50 was measured?;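 note: spheroids exposed to the agents for 7 days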
Result string: < 31.6 nM
